The reported numbers originate from PubChem BioAssay AID624330.

target: Rac GTPase-activating protein 1 (Homo sapiens); experiment: blockers of MgcRacGAP-driven Rac1 GTP hydrolysis – biochemical, ADP Hunter fluorescence, primary and confirmatory, confirmation (AID 624330); conditions: MgcRacGAP-stimulated Rac1 GTP hydrolysis, at 30 µM, hits give high values, GST-tagged Rac1 F28L mutant substrate;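 note: fluorescence reports GDP produced by GAP-driven GTP hydrolysis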
The campaign covered roughly 340,000 compounds. About 2,100 (0.62%) were called active. Not all results are given here. Potency and affinity values are given separately.
Label True when inhibition is at or above 2%; anything below gets False.

- compound: "COc1ccc(/C=N/NC(=O)c2cc[n+]([O-])cc2)cc1"
  target: "Rac GTPase-activating protein 1 (Homo sapiens)"
  groupLabel: "True"
- compound: "O=C(Cc1ccc(Cl)cc1)Nc1ccc2c(c1)C(=O)NC2=O"
  target: "Rac GTPase-activating protein 1 (Homo sapiens)"
  groupLabel: "True"
- compound: "Cn1c(N/N=C\\c2cccc(O)c2)cc(=O)n(C)c1=O"
  target: "Rac GTPase-activating protein 1 (Homo sapiens)"
  groupLabel: "True"
- compound: "COc1c(C)cc(C(=O)C2CCCN(Cc3cccc4nccnc34)C2)cc1C (stereo unspecified)"
  target: "Rac GTPase-activating protein 1 (Homo sapiens)"
  groupLabel: "True"
- compound: "Brc1ccc(-c2ccccc2)cc1"
  target: "Rac GTPase-activating protein 1 (Homo sapiens)"
  groupLabel: "False"
- compound: "COc1ccccc1/C=N/NC(=O)c1ccc(NC(=O)c2ccccc2Br)cc1"
  target: "Rac GTPase-activating protein 1 (Homo sapiens)"
  groupLabel: "False"

----------
# Lookup of reported inhibition keyed by entry
target: Rac GTPase-activating protein 1 (Homo sapiens); assay: blockers of MgcRacGAP-driven Rac1 GTP hydrolysis – biochemical, ADP Hunter fluorescence, primary and confirmatory, confirmation (AID 624330); conditions: MgcRacGAP-stimulated Rac1 GTP hydrolysis, at 30 µM, hits give high values, GST-tagged Rac1 F28L mutant substrate;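 note: fluorescence reports GDP produced by GAP-driven GTP hydrolysis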
Hit rate of the full screen: of about 340,000 compounds, about 2,100 (0.62%) were called active. The list is a sample of the results. Results with a measured potency or affinity are listed apart.

- molecule: "CN1OC[C@@H]2CN[C@H](c3ccc(-c4cccc(F)c4)cc3)C[C@@H]21"
  inhibition [%]: 15.6
- molecule: "Cc1ccc(C(=O)c2c(NC(=O)CSc3nnc(N)s3)sc3c2CCCC3)cc1"
  inhibition [%]: -2.45
- molecule: "Cc1ccccc1Nc1ncnc2c1cnn2C"
  inhibition [%]: 12.2
- molecule: "COc1ccc(/C=C/c2ccc3ccccc3[n+]2C)cc1OC"
  inhibition [%]: -0.83
- molecule: "O=C(CN(CC1CCCO1)C(=O)CCC(=O)Nc1nccs1)NCC1CCCO1 (centres undefined)"
  inhibition [%]: -9.34
- molecule: "COc1ccc(-c2nnc(NC(=O)Cc3ccccc3)o2)cc1"
  inhibition [%]: 7.81
- molecule: "CSc1nnnn1-c1cccc(O)c1"
  inhibition [%]: -2.6
- molecule: "S=C(c1ccc(-c2ccccc2Cl)o1)N1CCOCC1"
  inhibition [%]: 10.6
- molecule: "Clc1ccc(NCc2nnc3n2CCCCC3)cc1"
  inhibition [%]: 10.6
- molecule: "CN1CCN(c2nc3ccccn3c(=O)c2/C=C(\\C#N)S(=O)(=O)c2ccccc2)CC1"
  inhibition [%]: 10.8
- molecule: "Cc1cc2[nH]c3ccccc3c2c(C)n1"
  inhibition [%]: 5.1
- molecule: "Cn1c(N2CCOCC2)c(C=O)c2ccccc21"
  inhibition [%]: 8.54
- molecule: "CC[n+]1c(/C=C/c2ccc(OC(C)=O)c(OC)c2)ccc2ccccc21"
  inhibition [%]: 27
- molecule: "O=C(C1=C(O)C(=O)N(CCN2CCOCC2)C1c1ccccn1)c1cccs1 (centres undefined)"
  inhibition [%]: 8.66
- molecule: "Cc1ccc(S(=O)(=O)NCCC(=O)N2CCN(c3ccccc3)CC2)cc1C"
  inhibition [%]: -2.5
- molecule: "CC(C)(C)NC(=O)C(c1ccc(-c2ccccc2)cc1)N(C[C@H]1CC[C@@H]([C@@H]2CC[C@H](CO)O2)O1)C(=O)c1ccccc1F (some centres undefined)"
  inhibition [%]: 3.69
- molecule: "Cc1cc(-c2ccc3ccccc3c2)n2ncnc2n1"
  inhibition [%]: -7.09
- molecule: "OCCN(CCO)c1ccc(C(c2ccccc2Cl)c2ccc(N(CCO)CCO)cc2Cl)c(Cl)c1"
  inhibition [%]: 4.93
- molecule: "COc1ccc2c3n(nc2c1)CCN=C3c1ccc(C)cc1"
  inhibition [%]: 4.94
- molecule: "N=C(N)c1ccc(O)cc1"
  inhibition [%]: 3.97
- molecule: "O=S(=O)(c1ccccc1)c1nc(-c2ccccc2)oc1N1CCOCC1"
  inhibition [%]: 6.03
- molecule: "COc1ccccc1NC(=S)NCC1CCCO1 (centres undefined)"
  inhibition [%]: 8.32
- molecule: "OCCN(CCO)c1cc2c3ccccc3ccc2c2ccccc12"
  inhibition [%]: 16
- molecule: "CC(=O)N1CCOc2ccc(S(=O)(=O)Nc3ncccc3C)cc21"
  inhibition [%]: 4.93

----------
# Lookup of reported inhibition keyed by entry
target: Rac GTPase-activating protein 1 (Homo sapiens); experiment: blockers of MgcRacGAP-driven Rac1 GTP hydrolysis – biochemical, ADP Hunter fluorescence, primary and confirmatory, confirmation (AID 624330); conditions: MgcRacGAP-stimulated Rac1 GTP hydrolysis, at 30 µM, hits give high values, GST-tagged Rac1 F28L mutant substrate;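 note: fluorescence reports GDP produced by GAP-driven GTP hydrolysis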
In all, about 340,000 compounds went through this assay and about 2,100 (0.62%) were called active. Not all results are given here. Measured potencies and affinities stand elsewhere.

- compound: "CCc1ccccc1N(C(=O)c1ccco1)C(C(=O)NC1CCCC1)c1cccnc1 (centres undefined)"
  inhibition / %: 4.45
- compound: "Cn1c(=O)c2ncn(CC(=O)NCCOCc3ccccc3Cl)c2n(C)c1=O"
  inhibition / %: 0.57
- compound: "COc1cccc(CN2CCN(S(=O)(=O)c3ccc(Cl)s3)CC2)c1"
  inhibition / %: -1.96
- compound: "Oc1ccccc1CN1CCCC(N2CCc3ccccc3C2)C1 (centres undefined)"
  inhibition / %: 12.1
- compound: "C/C(=N\\Nc1nc2ccccc2[nH]1)c1ccc2c(c1)OCO2"
  inhibition / %: 29.4
- compound: "CC(=O)Nc1ccc2c3c(cccc13)CC2"
  inhibition / %: 3.29
- compound: "COC(=O)c1cc(C(=O)Nc2nnc(C3CC3)s2)cc([N+](=O)[O-])c1"
  inhibition / %: 11.3
- compound: "O=C(Nc1nc2ccccc2[nH]1)c1cccs1"
  inhibition / %: 5.07
- compound: "O=C(N/N=C/c1ccc(N2CCOCC2)s1)c1ccccc1Cl"
  inhibition / %: 25.1
- compound: "COc1cc(-c2ccccc2)[nH]c(=S)n1"
  inhibition / %: 9.57
- compound: "O=C1NC(=S)NC1Cc1ccc(O)cc1 (centres undefined)"
  inhibition / %: 7.3
- compound: "COC(=O)c1ccsc1NC(=O)c1ccc2c(c1)OCCO2"
  inhibition / %: 0.64
- compound: "COc1cccc(N2CC(NC(=O)c3ccc4ccccc4c3)CC2=O)c1 (centres undefined)"
  inhibition / %: 6.5
- compound: "COc1ccccc1NS(=O)(=O)c1cc(NC(=S)NCCN2CCOCC2)ccc1N1CCOCC1"
  inhibition / %: 21.5
- compound: "O=C(O)c1cnc(-c2ccccc2)nc1Oc1ccccc1"
  inhibition / %: 4.36
- compound: "COC(=O)C1CC(=O)N(c2ccc(C)cc2)C1 (centres undefined)"
  inhibition / %: 1.9
- compound: "Nc1ccc(C(=O)N/N=C/c2sc(N3CCOCC3)nc2-c2ccccc2)cc1"
  inhibition / %: 12
- compound: "O=C(NN=Cc1ccc(N2CCOCC2)s1)c1ccc([N+](=O)[O-])cc1"
  inhibition / %: 9.59
- compound: "CCOc1ccc(/C=N/Nc2ccc(C(F)(F)F)cc2[N+](=O)[O-])cc1O"
  inhibition / %: 13.1
- compound: "C/C(=N\\Nc1nc2ccccc2[nH]1)c1ccccn1"
  inhibition / %: 16.1
- compound: "O=C(O)CCS(=O)(=O)c1ccccc1Cl"
  inhibition / %: -0.02
- compound: "COc1ccc(N2CC(C(=O)OCC(=O)c3ccc(C)cc3)CC2=O)cc1 (centres undefined)"
  inhibition / %: -1.09
- compound: "C/C(=N\\Nc1nc2ccccc2[nH]1)c1ccc([N+](=O)[O-])cc1"
  inhibition / %: 9.3
- compound: "O=C(NCCc1nc2ccccc2[nH]1)Nc1ccccc1"
  inhibition / %: 8.22

----------
target: Rac GTPase-activating protein 1 (Homo sapiens) (UniProt Q9H0H5); assay: blockers of MgcRacGAP-driven Rac1 GTP hydrolysis – biochemical, ADP Hunter fluorescence, primary and confirmatory, confirmation (AID 624330); details: MgcRacGAP-stimulated Rac1 GTP hydrolysis, at 30 µM, hits give high values, GST-tagged Rac1 F28L mutant substrate;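 note: fluorescence reports GDP produced by GAP-driven GTP hydrolysis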
Sequence (Q9H0H5 whole entry, looked up): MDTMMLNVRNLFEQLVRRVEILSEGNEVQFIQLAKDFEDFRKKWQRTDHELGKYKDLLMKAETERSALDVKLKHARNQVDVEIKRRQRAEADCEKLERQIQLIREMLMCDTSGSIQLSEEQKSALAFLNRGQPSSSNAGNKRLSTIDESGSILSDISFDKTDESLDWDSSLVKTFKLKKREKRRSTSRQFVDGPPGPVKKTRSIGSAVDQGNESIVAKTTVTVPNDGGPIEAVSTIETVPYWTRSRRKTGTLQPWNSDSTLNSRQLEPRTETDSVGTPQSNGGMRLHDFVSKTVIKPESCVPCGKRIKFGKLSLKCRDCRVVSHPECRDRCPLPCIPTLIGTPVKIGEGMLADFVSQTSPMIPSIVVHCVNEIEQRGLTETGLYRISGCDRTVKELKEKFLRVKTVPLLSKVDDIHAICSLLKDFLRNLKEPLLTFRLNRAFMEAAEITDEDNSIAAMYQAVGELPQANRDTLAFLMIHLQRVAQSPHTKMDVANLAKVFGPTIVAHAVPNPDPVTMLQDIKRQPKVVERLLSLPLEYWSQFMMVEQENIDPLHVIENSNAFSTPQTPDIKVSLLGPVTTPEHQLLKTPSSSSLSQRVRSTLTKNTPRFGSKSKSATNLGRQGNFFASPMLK
The whole screen tested about 340,000 compounds, of which about 2,100 (0.62%) were called active. These entries were drawn from the full list. Potency and affinity values are given separately.

- compound: "C#CCOCCOCCOCCNc1nc(N2CCOCC2)nc(N2CCN(C(=O)[C@H](CCCCN)n3cc([C@@H](N)CC(C)C)nn3)CC2)n1"
  inhibition (%): 11.6
- compound: "CC(C(=O)OCC(=O)N1CCCCC1)N1C(=O)c2ccccc2C1=O (stereo not drawn)"
  inhibition (%): 2.6
- compound: "N#CCCN1CCN(C(=S)c2ccc(-c3cccc(Cl)c3)o2)CC1"
  inhibition (%): 6.88
- compound: "Nc1c(Cl)cc2c(c1Br)Cc1ccccc1-2"
  inhibition (%): 13.1
- compound: "C=COCCCNc1ncnc2sc(-c3ccccc3)cc12"
  inhibition (%): 23.7
- compound: "COc1ccc(CN2CCN(CCCc3ccccc3)C(CCO)C2)c(OC)c1 (stereo not drawn)"
  inhibition (%): 3.22
- compound: "C#CCOCCOCCOCCNc1nc(N2CCOCC2)nc(N2CCN(C(=O)[C@H](Cc3cc4ccccc4[nH]3)n3cc([C@@H](N)C(C)CC)nn3)CC2)n1 (stereo partly drawn)"
  inhibition (%): 13.4
- compound: "CCN(CC)c1ccc(/C=N/N2CCN(Cc3ccc(C)cc3)CC2)c(O)c1"
  inhibition (%): 15.3
- compound: "COc1ccc(CCn2c(O)cc3nn(-c4nc5ccccc5s4)c(=O)c-3c2C)cc1"
  inhibition (%): 20.6
- compound: "Cc1cccc(N2N=C(C(=O)Nc3nc(C)cs3)CCC2=O)c1"
  inhibition (%): 10.5
- compound: "CCc1nc2ccccc2c(=O)n1NC(=O)c1c(O)c2ccccc2n(CC)c1=O"
  inhibition (%): 11.3
- compound: "COc1ccccc1NC(=O)c1oc2ccccc2c1NC(=O)C1CC1"
  inhibition (%): 1.66
- compound: "O=[N+]([O-])c1ccc(C=NNc2ccccc2)cc1"
  inhibition (%): 0.7
- compound: "COc1ccc(NC(=O)COC(C)=O)cc1Cl"
  inhibition (%): 3.23
- compound: "CCN(Cc1ccccc1)c1ccc(/C=N/NC(=O)c2cccc(S(=O)(=O)N3CCOCC3)c2)cc1"
  inhibition (%): 9.77
- compound: "CCN(CC)S(=O)(=O)c1cc(C(=O)OCC(=O)Nc2ccc(-c3nc4ccc(C)cc4s3)cc2)ccc1F"
  inhibition (%): 4.33
- compound: "CN(CC1COc2ccccc2O1)C(=O)Cn1cc(C(F)(F)F)ccc1=O (stereo not drawn)"
  inhibition (%): 0.56
- compound: "O=C(Nc1ccccc1C(=O)NCCc1ccccc1)c1cnccn1"
  inhibition (%): 8.13
- compound: "CCN(c1ccccc1)S(=O)(=O)c1cccc(C(=O)Nc2cccc(C)n2)c1"
  inhibition (%): 16.5
- compound: "O=C(COC(=O)c1ccccc1C(=O)c1ccc(Cl)cc1)NCC1CCCO1 (stereo not drawn)"
  inhibition (%): 3.71
- compound: "C#CCOCCOCCOCCNc1nc(N2CCN(C(=O)Cn3cc(CCO)nn3)CC2)nc(N2CCN(C(=O)[C@H]([C@@H](C)CC)n3cc(CCCN=C(N)N)nn3)CC2)n1"
  inhibition (%): -0.25
- compound: "CCOC(=O)c1ccc(-n2c(=S)sc3c(=O)[nH]c(C)nc32)cc1"
  inhibition (%): 16.1
- compound: "O=C(NN=C1CCC(=NNC(=O)c2ccccn2)CC1)c1ccccn1"
  inhibition (%): 10.4
- compound: "CSc1ccccc1NC(=O)CN1CCN(c2ccccn2)CC1"
  inhibition (%): 6.87
- compound: "COc1ccc(NC(=O)C2CCCO2)cc1OC (stereo not drawn)"
  inhibition (%): 10.4
- compound: "COc1cc(C(=O)COC(=O)c2ccncc2)cc(OC)c1OC"
  inhibition (%): 4.46
- compound: "COc1ccc(NC(=O)c2ccc(N3CCCC3=O)cc2)cc1Cl"
  inhibition (%): -8.17
- compound: "COC(=O)C(Cc1cncn1COCc1ccccc1)NC(=O)OC(C)(C)C (stereo not drawn)"
  inhibition (%): 4.31
- compound: "C/C(=N\\NC(=O)c1ccc(NS(=O)(=O)c2cccs2)cc1)c1ccc(C(C)(C)C)cc1"
  inhibition (%): 8.43
- compound: "Cc1ccccc1N(CC(=O)N/N=C/c1cc(Br)c(C)o1)S(C)(=O)=O"
  inhibition (%): 4.93
- compound: "O=C(NCCN1CCOCC1)c1ccc(CS(=O)c2ccccc2Cl)o1 (stereo not drawn)"
  inhibition (%): -0.13
- compound: "N#C/C(=C/c1cc(Cl)c(O)c(Cl)c1)C(=O)N1CCCCC1"
  inhibition (%): 10.9
- compound: "CCN(CC)c1ccc(/C=N/N2CCN(Cc3ccccc3)CC2)c(O)c1"
  inhibition (%): 25.7
- compound: "c1ccc2cc(CNCc3cccc4ccccc34)ccc2c1"
  inhibition (%): 13
- compound: "O=C(N/N=C/c1ccc[nH]1)c1ccc([N+](=O)[O-])cc1"
  inhibition (%): 13.2
- compound: "Cc1ccc2c(c1)C1CC(C)(O2)N(c2cccc(C(=O)NC3CCN(Cc4ccccc4)CC3)c2)C(=O)N1 (stereo not drawn)"
  inhibition (%): 3.74
- compound: "N#C/C(=C\\c1cccc(O)c1)C(=O)N1CCCCC1"
  inhibition (%): 11.3
- compound: "CC(C)C(O)(C#CCN1CCCCC1)c1ccccc1 (stereo not drawn)"
  inhibition (%): -1.57
- compound: "CCN(CC(=O)N1CCCCC1)S(=O)(=O)c1ccccc1"
  inhibition (%): 5.64
- compound: "COc1ccccc1CNc1nc2nc(C)c(Cl)c(=O)n2[nH]1"
  inhibition (%): 3.76
- compound: "Brc1ccc(-c2ccc(/C=N/Nc3nc4ccccc4[nH]3)o2)cc1"
  inhibition (%): 3.17
- compound: "OCCCNCc1ccc(Cl)cc1Cl"
  inhibition (%): -1.18
- compound: "CCN(CC)c1ccc(/C=N/N2CCN(c3ccccc3OC)CC2)cc1"
  inhibition (%): 13
